Target: human GPR119 receptor (Homo sapiens, UniProt Q8TDV5)
Construct: host or cells: GeneBLAzer T-Rex GPR 119 CHO-K1 DA cells (CHO-K1)
Assay: Activity test for human GPR119 receptor (GeneBLAzer T-Rex GPR 119 CHO-K1 DA cells, fluorescence reporter)
Assay type: cell-based
Conditions: test compound conc. 0.1 μM; human GPR119 CHO-K1 reporter cells, 5 hours treatment; ratio to vehicle control well; read-out: % Activation
assay.readout: activity at 0.1 µM (%)

Below, 10 compounds whose answers are already recorded.
Query: Quote activity at 0.1 µM with test system human GPR119 receptor (Homo sapiens, UniProt Q8TDV5) for CC(C)(F)CN1CCC(COc2ccc(-c3ccc(C(=O)N4CCC[C@H]4C(N)=O)c(F)c3)cc2)CC1
Reply: 213

Query: Give reported activity at 0.1 µM for NC(=O)[C@@H]1CCCN1C(=O)c1ccc(-c2ccc(OCC3CCN(CC4(C(F)(F)F)CCC4)CC3)nc2)cc1 (human GPR119 receptor (Homo sapiens, UniProt Q8TDV5))
Reply: 254

Query: Quote human GPR119 receptor (Homo sapiens, UniProt Q8TDV5) activity at 0.1 µM for entry CC(C)(F)CN1CCC(COc2ccc(-c3ccc(C(=O)N4CCC[C@H]4C(N)=O)c(F)c3)c(C#N)c2)CC1 .
Reply: 187

Query: Param request: activity at 0.1 µM | system human GPR119 receptor (Homo sapiens, UniProt Q8TDV5) | item O=C(c1ccc(-c2ccc(OCC3CCN(CC4(C(F)(F)F)CCC4)CC3)cc2)cc1)N1CCC[C@@H](O)C1
Reply: 256

Query: # return activity at 0.1 µM of O=C(c1ccc(-c2ccc(OCC3CCN(CC4(C(F)(F)F)CC4)CC3)nc2)cc1)N1CCC(CO)CC1 (system: human GPR119 receptor (Homo sapiens, UniProt Q8TDV5))
Reply: 227

Query: Find the measured activity at 0.1 µM of NC(=O)[C@@H]1CCCN1C(=O)c1ccc(-c2cnc(OCC3CCN(CC4(C(F)(F)F)CCC4)CC3)cn2)cc1 with human GPR119 receptor (Homo sapiens, UniProt Q8TDV5) as test system.
Reply: 235

Query: Lab note: record activity at 0.1 µM of CC(C)(F)CN1CCC(COc2cnc(-c3ccc(C(=O)N4CCC[C@H]4C(N)=O)cc3)cn2)CC1 tested on human GPR119 receptor (Homo sapiens, UniProt Q8TDV5).
Reply: 191

Query: Give activity at 0.1 µM for this entry on human GPR119 receptor (Homo sapiens, UniProt Q8TDV5): CC(C)(F)CN1CCC(COc2cnc(-c3ccc(C(=O)N4CCC[C@H]4C(N)=O)c(F)c3)nc2)CC1
Reply: 321

Query: Under human GPR119 receptor (Homo sapiens, UniProt Q8TDV5), report activity at 0.1 µM for CC(C)(F)CN1CCC(COc2ccc(-c3ccc(C(=O)N4CCC[C@@H]4CO)cc3)cc2)CC1
Reply: 190

Query: Give human GPR119 receptor (Homo sapiens, UniProt Q8TDV5) activity at 0.1 µM for the following compound: CC(C)(F)CN1CCC(COc2ccc(-c3ccc(C(=O)N4CCC[C@@H]4CO)c(F)c3)cc2)CC1
Reply: 167

I. CC(C)(F)CN1CCC(COc2ccc(-c3ccc(C(=O)N4CCC[C@H]4C(N)=O)c(F)c3)nc2)CC1
II. O=C(c1ccc(-c2cnc(OCC3CCN(CC4(C(F)(F)F)CCC4)CC3)cn2)cc1F)N1CCC[C@@H](O)C1
Query: Please choose the item with the lower activity at 0.1 µM value from this pair: I and II Give the label of your selection.
Reply: I
(I: 228%, II: 410%)

----------
Molecular target: GPR 119 Receptor (Mus musculus, UniProt Q7TQP3)
Construct: from tissue; host or cells: whole animal: male C57/6J Jms mice (normal) or diet induced obesity C57BL/6J mice
Sequence (Q7TQP3 1-335): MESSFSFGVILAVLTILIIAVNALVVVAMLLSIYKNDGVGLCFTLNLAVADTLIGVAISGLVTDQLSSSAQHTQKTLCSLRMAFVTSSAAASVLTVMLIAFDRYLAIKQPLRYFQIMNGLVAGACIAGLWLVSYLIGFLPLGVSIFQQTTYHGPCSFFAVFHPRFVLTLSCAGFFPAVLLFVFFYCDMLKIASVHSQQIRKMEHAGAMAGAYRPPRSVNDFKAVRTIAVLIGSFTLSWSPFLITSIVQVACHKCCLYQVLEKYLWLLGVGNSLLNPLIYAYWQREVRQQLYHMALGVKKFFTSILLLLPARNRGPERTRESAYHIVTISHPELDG
Assay: Glucose tolerance test in normal mouse (animal test of activity for the GPR 119 receptor)
Type: in vivo
Conditions: normal male C57/6J Jms mice, oral glucose 2 g/kg, whole blood glucose AUC
assay.readout: Decrease % of AUC at 10 mg/kg (%)
Please reply with the bare figure in % and do not write the unit itself.

Query: Quote Decrease % of AUC at 10 mg/kg reported for CC(C)(F)CN1CCC(COc2ccc(-c3ccc(C(=O)N4CCC[C@@H](O)C4)cc3)cc2)CC1 please.
Reply: 50

----------
Molecular target: human GPR119 receptor (Homo sapiens, UniProt Q8TDV5)
Construct: host or cells: GeneBLAzer T-Rex GPR 119 CHO-K1 DA cells (CHO-K1)
Assay: Activity test for human GPR119 receptor (GeneBLAzer T-Rex GPR 119 CHO-K1 DA cells, fluorescence reporter)
Type: cell-based
Settings: test compound conc. 0.1 μM; human GPR119 CHO-K1 reporter cells, 5 hours treatment; ratio to vehicle control well; read-out: % Activation
assay.readout: activity at 0.1 µM (%)

Use the examples below as a reference point.
Query: Check the records and state activity at 0.1 µM for CC(=O)N1CCN(C(=O)c2ccc(-c3ccc(OCC4CCN(CC(C)(C)F)CC4)cc3)cc2)CC1
Reply: 138

Query: Supply reported activity at 0.1 µM belonging to this molecule: CC(C)(F)CN1CCC(COc2ccc(-c3ccc(C(=O)N4CCOCC4)cc3)cc2)CC1
Reply: 192

Query: Assign activity at 0.1 µM to the following record: CCC(F)(CC)CN1CCC(COc2cnc(-c3ccc(C(=O)N4CCCC[C@@H]4C(N)=O)c(F)c3)nc2)CC1
Reply: 407

Query: Provide only the value of recorded activity at 0.1 µM for NC(=O)[C@@H]1CCCN1C(=O)c1ccc(-c2ccc(OCC3CCN(CC4(C(F)(F)F)CC4)CC3)nc2)cc1
Reply: 213

Query: Specify reported activity at 0.1 µM for the molecule shown: CCC(F)(CC)CN1CCC(COc2ccc(-c3ccc(C(=O)N4CCC[C@H]4C(N)=O)cc3F)cc2C#N)CC1
Reply: 406

Query: Identify the reported activity at 0.1 µM for the following entry. CC(C)(F)CN1CCC(COc2ccc(-c3ccc(C(=O)N4CCC(F)(F)C4)cc3)cc2)CC1
Reply: 199

Query: Specify reported activity at 0.1 µM for the molecule shown: CC(C)(F)CN1CCC(COc2ccc(-c3ccc(C(=O)N4CC[C@@H](O)C4)c(F)c3)nc2)CC1
Reply: 162

Query: Name the recorded activity at 0.1 µM of the molecule listed here: CC(C)(F)CN1CCC(COc2cnc(-c3ccc(C(=O)N4CCC[C@H]4C(N)=O)c(F)c3)cn2)CC1
Reply: 180

Query: Please look at this molecule and report its activity at 0.1 µM: NC(=O)[C@@H]1CCCN1C(=O)c1ccc(-c2ccc(OCC3CCN(CC4(C(F)(F)F)CCC4)CC3)c(F)c2)cc1
Reply: 251

Query: Name the recorded activity at 0.1 µM of the item NC(=O)[C@H]1CCCCN1C(=O)c1ccc(-c2ccc(OCC3CCN(CC4(C(F)(F)F)CCC4)CC3)c(F)c2)cc1 in your answer.
Reply: 164

1. CS(=O)(=O)c1ccc(-c2ccc(OCC3CCN(CC4(C(F)(F)F)CCC4)CC3)cc2)cc1
2. CC(C)(F)CN1CCC(COc2ccc(-c3ccc(C(=O)N4CC[C@H](O)C4)cc3)cc2)CC1
Query: Returns: the argument ( 1 or 2 ) having the larger activity at 0.1 µM. Your answer should be the label attached to the chosen record.
Reply: 1

----------
Biological target: human GPR119 receptor (Homo sapiens, UniProt Q8TDV5)
Construct: host or cells: GeneBLAzer T-Rex GPR 119 CHO-K1 DA cells (CHO-K1)
Sequence (Q8TDV5 1-335): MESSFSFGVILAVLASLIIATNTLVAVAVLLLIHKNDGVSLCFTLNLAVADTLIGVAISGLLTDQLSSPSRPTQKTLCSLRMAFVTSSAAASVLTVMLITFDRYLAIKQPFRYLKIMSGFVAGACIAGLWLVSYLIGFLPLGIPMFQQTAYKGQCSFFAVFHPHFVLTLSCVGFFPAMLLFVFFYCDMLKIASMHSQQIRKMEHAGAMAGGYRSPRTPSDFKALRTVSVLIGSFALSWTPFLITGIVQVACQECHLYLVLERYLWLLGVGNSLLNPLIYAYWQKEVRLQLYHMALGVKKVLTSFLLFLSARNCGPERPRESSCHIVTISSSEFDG
Assay: Activity test for human GPR119 receptor (GeneBLAzer T-Rex GPR 119 CHO-K1 DA cells, fluorescence reporter)
Format: cell-based
Details: test compound conc. 10 μM; human GPR119 CHO-K1 reporter cells, 5 hours treatment; ratio to vehicle control well; read-out: % Activation
assay.readout: activity at 10 µM (%)

Guide cases for activity at 10 µM, answers given:
Query: Input O=C(c1ccc(-c2ccc(OCC3CCN(CC4(C(F)(F)F)CCC4)CC3)cc2)cc1)N1CCC[C@@H](O)C1 , output reported activity at 10 µM.
Reply: 252

Query: Provide one value: measured activity at 10 µM of O=C(c1ccc(-c2ccc(OCC3CCN(CC4(C(F)(F)F)CCC4)CC3)nc2)cc1F)N1CC[C@H](O)C1
Reply: 262

Query: // fetch activity at 10 µM given entry O=C(c1ccc(-c2ccc(OCC3CCN(CC4(C(F)(F)F)CC4)CC3)nc2)cc1)N1CCC(CO)CC1
Reply: 297

Query: Give the reported value of activity at 10 µM for this record: CCC(F)(CC)CN1CCC(COc2ccc(-c3ccc(C(=O)N4CCC[C@H]4C(N)=O)cc3F)cc2C#N)CC1
Reply: 482

Query: Input CC(C)(F)CN1CCC(COc2ccc(-c3ccc(C(=O)N4CCC[C@@H]4CO)cc3)cc2)CC1 , output reported activity at 10 µM.
Reply: 272

I. NC(=O)[C@@H]1CCCN1C(=O)c1ccc(-c2ccc(OCC3CCN(CC4(C(F)(F)F)CCC4)CC3)c(F)c2)cc1
II. CC(C)(F)CN1CCC(COc2cnc(-c3ccc(C(=O)N4CCCC[C@@H]4C(N)=O)c(F)c3)nc2)CC1
Query: Of the two listed items, I and II , which carries the larger activity at 10 µM figure? # answer = label of selected item
Reply: II
